Recorded values, source patent US6730828B1.

Catalogue of GST activity toward CDNB readings, one per entry.
# PROTOCOL TEXT: GST activity toward CDNB
# Format: biochemical
# CONDITION: recombinant wheat GST expressed in E. coli, affinity purified
# Description: The purified isoenzymes were assayed for GST activity toward herbicides using the HPLC-based assays described by Edwards R. and Cole D. J. (Pesticide Biochemistry and Physiology Vol. 54, pp96-104 (1996)) and the results are presented in Table 2. […] To confirm that TaGST1 encoded a GST, it was expressed as a fusion protein with beta-galactosidase using the pBluescript plasmid in E. coli strain SOLR. […]
Report the figure in nkat.mg^−1 without appending any unit label.

MOLECULE | GST activity toward CDNB (nkat.mg^−1)
TA 27: recombinant wheat GST from cloquintocet-mexyl-induced cDNA, SEQ ID No. 13, amino acid SEQ ID No. 14, expressed from pET 11a (protein, Triticum aestivum L.) MEPMKVYGWAVSPWMARVLVSLEEAGADYELVPMSRNGGDHRRPEHLARNPFGEIPVLEYGGLTLYQSRAIARHILRKHKPGLLGAGSLEESAMVDVWVDVDAHHLEPVLKPIVWNCIINPFVGRDVDQGLVDESVEKLKKLLEVYEARLSSNKYLAGDFVSFADLTHFSFMRYFMATEHAVVLDAYPHVKAWWKALLARPSVKKVIAGMPPDFGFGSGRIP | 237

Prompt: Note GST activity toward CDNB for the molecule shown: WIC 5: recombinant type I wheat GST, SEQ ID No. 9, amino acid SEQ ID No. 10 (protein, Triticum aestivum L.) MAPIKLYGMMLSANVTRVTTLLNELGLEFDFVDVDLRTGAHKHPDFLKLNPFGQIPALQDGDEVVFESRAINRYIATKYGASLLPTPSAKLEAWLEVESHHFYPPARTLVYELVIKPMLGAPTDAAEVDKNAADLAKLLDVYEAHLAAGNKYLAGDAFPLADANHMSYLFMLTKSPKADLVASRPHVKAWWEEISARPAWAKTVASIPLPPAV
Completion: 174

Prompt: Note GST activity toward CDNB for the molecule shown: ICR: recombinant safener-inducible type III wheat GST clone, SEQ ID No. 15, amino acid SEQ ID No. 16 (protein, Triticum aestivum L.) MAGDGELKLLGVWTSPFVIRVRVVLNLKSLPYEYVEESLGSKSALLLGSNPVHQSVPVLLHGGRPVNESQVIVQYIDEVWAGAGPSVLPADPYERATARFWAAYVDDKVGSAWTGMLFSCKTEEERAEAVSRAVAALETLEGAFAECSKGKAFFGGDAIGFVDVVLGGYLGWFGAIDKIIGRRLIDPARTPLLARWEERFRAADAAKGVVPDDADKMLEFLPTVLAWIAGKAK
Completion: 8139
